I'd be grateful if you could share measured Liver Microsome Stability (Multiple Species): Monkey - % Remaining after 30 min w/NADPH for these entries.
- procedure.summary: Liver Microsome Stability Assay (monkey)
- details: monkey liver microsomes, with NADPH, 1.0 uM compound
Answers are plain numbers, in %.

[[record]]
molecule = "Cc1c(/C=C/c2csc(NC(=O)c3cccn3Cc3ccnc(F)c3)n2)ncn1C(C)CO (stereo not drawn)"
display_unit = "%"
data_value = 0.21

[[record]]
molecule = "Cc1nc(/C=C/c2csc(NC(=O)c3cccn3Cc3ccncc3)n2)cn1C"
display_unit = "%"
data_value = 0.27


Q: So what's the measured Liver Microsome Stability (Multiple Species): Monkey - % Remaining after 30 min w/NADPH for this one? O=C(Nc1nc([C@H]2CCCN2c2ccc(OC3CCN(C(=O)CF)CC3)cc2)cs1)c1cccn1Cc1ccnc(F)c1
A: 1.3

###

- procedure.summary: Liver Microsome Stability Assay (mouse)
- details: mouse liver microsomes, with NADPH, 1.0 uM compound
I'd be grateful if you could share measured Liver Microsome Stability (Multiple Species): Mouse - % Remaining after 30 min w/NADPH for these entries.
Mention the unit after the number when you answer.

In the examples that follow, each entry is paired with its recorded Liver Microsome Stability (Multiple Species): Mouse - % Remaining after 30 min w/NADPH.
[[record]]
molecule = "CNc1ccc(N2CCC[C@@H]2c2csc(NC(=O)c3cccn3Cc3ccncc3)n2)cc1"
data_value = "10.5%"

[[record]]
molecule = "CC(=O)N1CC(OC(=O)Nc2ccc(N3CCC[C@@H]3c3csc(NC(=O)c4cccn4Cc4ccnc(F)c4)n3)cc2)C1"
data_value = "34.8%"

[[record]]
molecule = "O=C(Nc1nc(/C=C/c2c[nH]cn2)cs1)c1cccn1Cc1ccnc(F)c1"
data_value = "59.3%"


For every item below, please supply its Liver Microsome Stability (Multiple Species): Mouse - % Remaining after 30 min w/NADPH.
1. [2H]c1c([2H])c([2H])c(N2CCC[C@@H]2c2csc(NC(=O)c3cccn3Cc3ccnc(F)c3)n2)c([2H])c1[2H]
2. CC(=O)N[C@@H](C)c1ccc(N2CCC[C@@H]2c2csc(NC(=O)c3cccn3Cc3ccncc3)n2)cc1
3. O=C(Nc1nc(C2C3CN(c4ccccc4)CC32)cs1)c1cccn1Cc1ccncc1 (centres unmarked)
4. CCc1ccc(N2CCC[C@@H]2c2csc(NC(=O)c3cccn3Cc3ccncc3)n2)nc1
5. O=C(Nc1nc([C@H]2CCCN2c2ccc(Br)cc2)cs1)c1cccn1Cc1ccnc(F)c1
6. O=C(O)CCCCn1cccc1C(=O)Nc1nc([C@H]2CCCN2c2ccccc2)cs1
7. C#CCCCn1cccc1C(=O)Nc1nc([C@H]2CCCN2c2ccccc2)cs1

A:
1. 10.9%
2. 0.14%
3. 27.8%
4. 0.33%
5. 60.7%
6. 52.3%
7. 38.7%

Q: So what's the measured Liver Microsome Stability (Multiple Species): Mouse - % Remaining after 30 min w/NADPH for this one? Cc1cc(C(=O)Nc2nc(/C=C/c3cn(C(C)C)cn3)cs2)n(Cc2ccnc(F)c2)c1
A: 49.5%

###

- System: TNFα-FL/Gaussia Luciferase
- procedure.summary: Dox Induced TNFα-FL-Gluc Assay
- Format: cell-based
- details: 24 hr Dox induction; 293FRT/TO cells; read-out: 24 hr Dox Inducible TNFaFLGluc 293FRT/TO: Mean IC50
measured.metric: pIC50
Numbers only, as −log10 of the molar value.

[[record]]
smiles_code = "O=C(Nc1nc([C@H]2CCCN2c2cccnn2)cs1)c1cccn1Cc1ccncc1"
data_value = 4.88

[[record]]
smiles_code = "COC(=O)Nc1ccc(N2CCC[C@@H]2c2csc(NC(=O)c3cccn3Cc3ccnc(F)c3)n2)cc1"
data_value = 8.23

[[record]]
smiles_code = "C[C@@H](N)c1ccc(N2CCC[C@@H]2c2csc(NC(=O)c3cccn3Cc3ccncc3)n2)cc1"
data_value = 6.06

[[record]]
smiles_code = "O=C(Nc1ccc(N2CCC[C@@H]2c2csc(NC(=O)c3cccn3Cc3ccnc(F)c3)n2)cc1)OC1COC1"
data_value = 7.59

[[record]]
smiles_code = "Cc1cn(C(C)C)nc1/C=C/c1csc(NC(=O)c2cccn2Cc2ccnc(F)c2)n1"
data_value = 4.93


Now, please, on to the next molecule.
Q: Kindly state the measured pIC50 obtained for CC(=O)N[C@H](C)c1ccc(N2CCC[C@@H]2c2csc(NC(=O)c3cccn3Cc3ccnc(F)c3)n2)cc1 with TNFα-FL/Gaussia Luciferase.
A: 6.63

###

- Test system: TNFα-FL/Gaussia Luciferase
- procedure.summary: Dox Induced TNFα-FL-Gluc Assay
- Format: cell-based
- details: ratio of TNFaFLGluc IC50 to PD1ssGluc IC50
- Text: Flp-In 293 T-REx™ cells were transfected with pcDNA™5/FRT/TO plasmid inserted with cDNA encoding Gaussia Luciferase fused to the 3′ end of cDNA encoding full length TNFα (amino acids 1-233). Transfected cells were selected for resistance to the selectable markers Hygromycin and Blasticidin to create a stable cell line that contained the TNFα-FL/Gaussia Luciferase cDNA insert whose expression was regulated under the T-REx™ system. […]
measured.metric: 24 hr Dox Inducible TNFaFLGluc 293FRT/TO: TNF/PD1

[[record]]
compound = "CC(CC(N)=O)n1cnc(/C=C/c2csc(NC(=O)c3cccn3Cc3ccnc(F)c3)n2)c1 (stereo not drawn)"
data_value = "⇔1.00"

[[record]]
compound = "CN1CCOC(/C=C/c2csc(NC(=O)c3cccn3Cc3ccncc3)n2)C1 (stereo not drawn)"
data_value = ">5.68"


###

- System: TNFα-FL/Gaussia Luciferase
- procedure.summary: Dox Induced TNFα-FL-Gluc Assay
- Type: cell-based
- details: ratio of TNFaFLGluc IC50 to PD1ssGluc IC50
I'd be grateful if you could share measured 24 hr Dox Inducible TNFaFLGluc 293FRT/TO: TNF/PD1 for these entries.

In the examples that follow, each entry is paired with its recorded 24 hr Dox Inducible TNFaFLGluc 293FRT/TO: TNF/PD1.
[[record]]
smiles_code = "CC(C)c1cc(/C=C/c2csc(NC(=O)c3cccn3Cc3ccnc(F)c3)n2)no1"
data_value = ">150"

[[record]]
smiles_code = "CC(C)n1cnc(-c2cccc(-c3csc(NC(=O)c4cccn4Cc4ccnc(F)c4)n3)c2)c1"
data_value = ">69.1"

[[record]]
smiles_code = "Cc1cccc2nc(/C=C/c3csc(NC(=O)c4cccn4Cc4ccnc(F)c4)n3)cn12"
data_value = ">50.1"

[[record]]
smiles_code = "O=C(Nc1nc(/C=C/c2ncco2)cs1)c1cccn1Cc1ccncc1"
data_value = ">32.1"

[[record]]
smiles_code = "CC(C)c1c(/C=C/c2csc(NC(=O)c3cccn3Cc3ccnc(F)c3)n2)ncn1C"
data_value = ">109"


For every item below, please supply its 24 hr Dox Inducible TNFaFLGluc 293FRT/TO: TNF/PD1.
1. O=C(Nc1nc(/C=C/c2cn3c(n2)CCC3)cs1)c1cccn1Cc1ccnc(F)c1
2. CC(C)c1ccc(/C=C/c2csc(NC(=O)c3cccn3Cc3cccnc3)n2)nc1
3. Cc1coc(/C=C/c2csc(NC(=O)c3cccn3Cc3ccncc3)n2)n1
4. COC(=O)Nc1ccc(N2CCC[C@@H]2c2csc(NC(=O)c3cc(C)cn3Cc3ccnc(F)c3)n2)cc1

A:
[">77.9", ">1.61", ">62.8", 19]

For every item below, please supply its 24 hr Dox Inducible TNFaFLGluc 293FRT/TO: TNF/PD1.
1. O=C(Nc1nc([C@H]2CCCN2c2ccc(CO)cc2)cs1)c1cccn1Cc1ccnc(F)c1
2. NC(=O)N1CCC(Oc2ccc(N3CCC[C@@H]3c3csc(NC(=O)c4cccn4Cc4ccnc(F)c4)n3)nc2)CC1

A:
[13.9, 13.5]

###

- Tested on: IL-2-FL/Gaussia Luciferase
- procedure.summary: Dox Induced IL2-FL-Gluc Assay
- Type: cell-based
- details: ratio of IL2FLGluc IC50 to PD1ssGluc IC50
measured.metric: 24 hr Dox Inducible IL2FLGluc 293FRT/TO: IL2/PD1

[[record]]
compound = "NC(=O)CCn1cnc(/C=C/c2csc(NC(=O)c3cccn3Cc3ccnc(F)c3)n2)c1 [Compound B109]"
system = "IL-2-FL/Gaussia Luciferase"
data_value = "<=>1.0"

[[record]]
compound = "NC(=O)Cn1cnc(/C=C/c2csc(NC(=O)c3cccn3Cc3ccnc(F)c3)n2)c1 [Compound B115]"
system = "IL-2-FL/Gaussia Luciferase"
data_value = "<=>1.0"


###

- Test system: IL-2-FL/Gaussia Luciferase
- procedure.summary: Dox Induced IL2-FL-Gluc Assay
- Assay type: cell-based
- details: ratio of IL2FLGluc IC50 to PD1ssGluc IC50
measured.metric: 24 hr Dox Inducible IL2FLGluc 293FRT/TO: IL2/PD1
Answers are plain numbers.

[[record]]
smiles_code = "O=C(Nc1nc([C@H]2CCCN2c2ccc(CCO)cc2)cs1)c1cccn1Cc1ccnc(F)c1"
data_value = 2.3

[[record]]
smiles_code = "C[C@@H](N)c1ccc(N2CCC[C@@H]2c2csc(NC(=O)c3cccn3Cc3ccnc(F)c3)n2)cc1"
data_value = 2.2

[[record]]
smiles_code = "CC(C)c1cc(/C=C/c2csc(NC(=O)c3cccn3Cc3ccnc(F)c3)n2)no1"
data_value = 7

[[record]]
smiles_code = "C[C@H](O)c1ccc(N2CCC[C@@H]2c2csc(NC(=O)c3cccn3Cc3ccnc(F)c3)n2)cc1"
data_value = 2.3

[[record]]
smiles_code = "O=C(Nc1nc([C@H]2CCCN2c2ccc(O[C@@H]3CCCNC3)cc2)cs1)c1cccn1Cc1ccnc(F)c1"
data_value = 4.1


Now, please, on to the next compound.
Q: So what's the measured 24 hr Dox Inducible IL2FLGluc 293FRT/TO: IL2/PD1 for this one? O=C(Nc1nc([C@H]2CCCN2c2ccc(Cl)cc2)cs1)c1cccn1Cc1ccncc1
A: 2.1
